Please respond with reported PL for every item in the list.
organism: Rattus norvegicus; test: Open TG-GATES - Regimen: Single; format: toxicity, organism-based, Sprague-Dawley; design: regimen Single, gender Male, age 6 weeks; conditions: in vivo, po, 1000 mg/kg, 24 h, tissue Plasma, route gavage, dose level High
Reply with just the number (in mg/dL).

// query Please give the measured PL for this compound: C[C@H](CS)C(=O)N1CCC[C@H]1C(=O)O
// result 142

// query Please give the measured PL for this compound: Clc1ccccc1CN1CCc2sccc2C1
// result 143

// query Please give the measured PL for this compound: O=C(O)c1cc(/N=N/c2ccc(S(=O)(=O)Nc3ccccn3)cc2)ccc1O
// result 142.4

// query Please give the measured PL for this compound: O=C(O)c1cn(C2CC2)c2cc(N3CCNCC3)c(F)cc2c1=O
// result 146.4

// query Please give the measured PL for this compound: CCc1cc(C(N)=S)ccn1 [ETHIONAMIDE]
// result 86.6
